Target: HLA-DR1 (Homo sapiens, UniProt P01903+P01911, A100R/D57E/F55L/F60I/F76Y/I96L/L162R/M171V/P40L/Q125E/R42F/V115G/Y59C)
Experiment: biochemical
Could you please mark YES for values of IC50 below 200 nM and NO for values at or above it?

INSERT INTO assay_data (molecule, class_assignment) VALUES
  ('CC[C@H](C)[C@H](NC(=O)[C@H](CCCNC(=N)N)NC(=O)[C@H](CC(=O)O)NC(=O)[C@@H](NC(=O)[C@H](CCCCN)NC(=O)[C@@H](NC(=O)[C@H](CO)NC(=O)[C@H](CCC(=O)O)NC(=O)[C@@H](NC(=O)[C@H](Cc1ccc(O)cc1)NC(=O)[C@H](CCSC)NC(=O)[C@H](Cc1ccccc1)NC(=O)[C@H](CO)NC(=O)[C@H](Cc1ccccc1)NC(=O)[C@@H](N)CCCCN)[C@@H](C)CC)[C@@H](C)CC)C(C)C)C(=O)O [A20R (214–228)]', 'YES'),
  ('CC[C@H](C)[C@H](NC(=O)[C@H](CO)NC(=O)[C@H](CC(N)=O)NC(=O)[C@H](Cc1ccccc1)NC(=O)[C@@H](NC(=O)[C@@H](N)CC(C)C)C(C)C)C(=O)N[C@@H](CO)C(=O)N[C@@H](C)C(=O)N[C@@H](CCCNC(=N)N)C(=O)N[C@@H](C)C(=O)N[C@@H](CC(C)C)C(=O)N[C@@H](CCCCN)C(=O)N[C@@H](C)C(=O)N[C@@H](Cc1ccc(O)cc1)C(=O)N[C@@H](Cc1ccccc1)C(=O)O', 'YES'),
  ('CC[C@H](C)[C@H](NC(=O)[C@@H]1CCCN1C(=O)[C@H](CO)NC(=O)CNC(=O)[C@H](CC(=O)O)NC(=O)[C@H](CC(C)C)NC(=O)[C@@H](NC(=O)[C@H](CCCCN)NC(=O)[C@H](Cc1ccccc1)NC(=O)CNC(=O)[C@H](CC(C)C)NC(=O)[C@@H](N)CO)C(C)C)C(=O)N[C@@H](CO)C(=O)N[C@@H](CC(C)C)C(=O)N[C@@H](CCCNC(=N)N)C(=O)O', 'YES');

Query: Is 200 nM strictly greater than the molecule's reported IC50? molecule: CC[C@H](C)[C@H](NC(=O)[C@H](Cc1ccccc1)NC(=O)[C@H](CC(C)C)NC(=O)[C@H](CC(C)C)NC(=O)[C@H](CO)NC(=O)[C@@H](NC(=O)[C@H](C)N)C(C)C)C(=O)N[C@@H](CCC(N)=O)C(=O)NCC(=O)N[C@@H](Cc1ccc(O)cc1)C(=O)N[C@@H](CO)C(=O)N[C@H](C(=O)N[C@@H](Cc1ccc(O)cc1)C(=O)N[C@@H](CCC(=O)O)C(=O)N[C@@H](CC(N)=O)C(=O)O)[C@@H](C)CC [A28Ls (15–29)]
Result: NO

Query: Is 200 nM strictly greater than the molecule's reported IC50? molecule: CC[C@H](C)[C@H](NC(=O)CNC(=O)[C@H](CO)NC(=O)[C@H](CCC(N)=O)NC(=O)[C@H](CC(N)=O)NC(=O)[C@@H](NC(=O)[C@H](Cc1ccccc1)NC(=O)[C@@H]1CCCN1C(=O)[C@@H](N)CCC(=O)O)C(C)C)C(=O)N[C@@H](CCC(=O)O)C(=O)N[C@H](C(=O)N[C@@H](CC(C)C)C(=O)N[C@@H](CC(C)C)C(=O)O)[C@@H](C)CC [D11L (386–398)]
Result: YES

Query: Is 200 nM strictly greater than the molecule's reported IC50? molecule: CC[C@H](C)[C@H](NC(=O)[C@H](C)NC(=O)[C@H](CC(C)C)NC(=O)[C@H](CO)NC(=O)[C@H](CC(N)=O)NC(=O)[C@H](CC(C)C)NC(=O)[C@H](Cc1ccccc1)NC(=O)[C@H](CCCNC(=N)N)NC(=O)[C@H](CCSC)NC(=O)[C@H](CC(=O)O)NC(=O)[C@@H](N)Cc1ccccc1)C(=O)N[C@@H](Cc1c[nH]cn1)C(=O)N[C@@H](CCC(=O)O)C(=O)O
Result: YES
